system: SNB-75; experiment: NCI tumour cell line growth inhibition, 48 h
The source made the active and inactive calls. No stated cut-off is given here; in the data, active = GI50 up to about 1.1 µM and inactive = higher.
Outcomes you can answer with include only these: active, inactive

Lookup: I'd appreciate the recorded outcome for COc1ccc(C2SC(=N)Nc3c2c(C)nn3C(=O)c2ccccc2O)cc1 (centres undefined) from this test.
Found: active

Lookup: Hey, what did the test say about "O=C(NNC(=O)c1ccccc1O)c1ccco1" ?
Found: inactive

Lookup: Answer briefly: the call reported for "CN(C)C(=N/O)/C(=N\O)N(C)C" in this assay.
Found: inactive

Lookup: Recorded test call requested for COC(=O)C(Cc1ccccc1)NC(=O)C(CCC(=O)OCc1ccccc1)NC(=O)OC(C)(C)C (centres undefined)
Found: inactive

Lookup: How was CC1=CCC[C@H]2[C@](C)(CC3=CC(=O)C4SCCSC4C3=O)[C@@H](C)CC[C@]12C (some centres undefined) classified in this test?
Found: inactive

Lookup: So what was the verdict on CC1CC[C@]2(C(=O)O)CCC3(C)C(=CCC4[C@@]5(C)CC[C@H](OS(=O)(=O)c6ccccc6)C(C)(C)C5CC[C@]43C)[C@@H]2[C@H]1C (some centres undefined) in this test?
Found: inactive

Lookup: Please let me know the test result on file for CC1=C(/C=C/C(C)=C/C=C/C(C)=C/C=C/C=C(C)/C=C/C=C(C)/C=C/C2=C(C)C(=O)C(O)CC2(C)C)C(C)(C)CC(O)C1=O (centres undefined) .
Found: inactive

The measured values listed here are drawn from ChEMBL document CHEMBL1201862.
